Attribution: PubChem BioAssay (NCI)

The following molecules are shown together with reported TGI values.
tested on: MCF7 breast; assay: NCI tumour cell line growth inhibition, 48 h
Where a SMILES comes first, the peptide text is derived from it. [ ]: non-standard residue; d: D form. 2Nal = N[CH](Cc1ccc2ccccc2c1)C(=O)O
Assay endpoint: TGI

molecule=CC(C)(C)SC1=CCC[C@@H](P(=O)(c2ccccc2)c2ccccc2)[C@@H]2CCC[C@@H]12 target_entity="MCF7 breast" assay_endpoint=TGI assay_value="31.1 µM"
molecule="CC(NC(=O)C(N)Cc1ccccc1)C(=O)NC(Cc1ccc(O)cc1)C(=O)NC(Cc1c[nH]c2ccccc12)C(=O)NC(CCCCN)C(=O)NC(C(=O)NC(C)C(=O)NC(Cc1ccc2ccccc2c1)C(N)=O)C(C)C (stereo not drawn) (H-FAYWKVA[2Nal]-NH2; configuration not given here)" target_entity="MCF7 breast" assay_endpoint=TGI assay_value="> 12.5 µM"
molecule=CS(=O)(=O)C(=Cc1ccccc1Cl)S(C)(=O)=O target_entity="MCF7 breast" assay_endpoint=TGI assay_value="> 100 µM"
